target-desc: Glucocorticoid receptor (Homo sapiens) (UniProt P04150)
Sequence (P04150 whole entry): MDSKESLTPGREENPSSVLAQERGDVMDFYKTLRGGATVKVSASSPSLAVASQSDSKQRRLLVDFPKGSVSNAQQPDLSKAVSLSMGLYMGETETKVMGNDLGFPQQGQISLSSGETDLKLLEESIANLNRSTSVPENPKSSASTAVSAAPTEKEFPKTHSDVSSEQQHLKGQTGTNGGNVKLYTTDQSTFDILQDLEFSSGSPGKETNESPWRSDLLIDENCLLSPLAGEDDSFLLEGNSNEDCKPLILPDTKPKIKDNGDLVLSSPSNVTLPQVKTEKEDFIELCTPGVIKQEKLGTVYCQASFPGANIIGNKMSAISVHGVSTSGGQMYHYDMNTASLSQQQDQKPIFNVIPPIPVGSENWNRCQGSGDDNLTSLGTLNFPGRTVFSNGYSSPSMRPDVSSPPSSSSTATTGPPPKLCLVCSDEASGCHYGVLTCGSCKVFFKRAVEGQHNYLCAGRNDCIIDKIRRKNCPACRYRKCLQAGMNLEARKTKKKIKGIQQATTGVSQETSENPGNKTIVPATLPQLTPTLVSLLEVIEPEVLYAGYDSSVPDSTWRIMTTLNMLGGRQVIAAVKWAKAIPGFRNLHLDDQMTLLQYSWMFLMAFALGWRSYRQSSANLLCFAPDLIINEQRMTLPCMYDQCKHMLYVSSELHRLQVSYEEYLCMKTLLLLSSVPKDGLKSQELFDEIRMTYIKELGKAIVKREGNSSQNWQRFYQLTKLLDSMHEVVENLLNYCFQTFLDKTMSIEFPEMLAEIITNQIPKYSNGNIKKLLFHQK
test-description: Displacement of [3H]dexamethasone from glucocorticoid receptor at 1 uM
measured-property: inhibition (%)

INSERT INTO measurements (record_smiles, target_desc, uom, result_value) VALUES
  ('Cn1c(N2CCC(Cc3ccccc3)CC2)c(Cc2ccccc2)c(=O)[nH]c1=O', 'Glucocorticoid receptor (Homo sapiens) (UniProt P04150)', '%', 11);

1. CC1CCN(c2[nH]c(=O)n(C)c(=O)c2Cc2ccccc2)CC1
2. COc1cccc(Cc2c(N3CCC(c4ccccc4)CC3)[nH]c(=O)[nH]c2=O)c1
3. CC(=O)Nc1cccc(C2CCN(c3[nH]c(=O)[nH]c(=O)c3Cc3ccccc3)CC2)c1
4. Cn1c(=O)[nH]c(N2CCC(CCCc3ccccc3)CC2)c(Cc2ccccc2)c1=O
Sort the compounds on inhibition; start with the lowest figure. Reply with the labels, ordered as the question asks.
1, 3, 4, 2
(1: 2%, 3: 11%, 4: 18%, 2: 31%)

P. Cn1c(=O)[nH]c(N2CCc3ccccc3C2)c(Cc2ccccc2)c1=O
Q. N#Cc1ccc(Cc2c(N3CCC(c4ccccc4)CC3)[nH]c(=O)[nH]c2=O)cc1
Between P and Q , whose recorded inhibition is greater? Write down the label of the entry you select.
Q
(Q: 37%, P: 23%)
